Tested on: MS2 coat protein
Assay procedure: apparent KD of MS2 coat protein; designed switch direction (-1 OFF switch, 1 ON switch): -1; higher = weaker reporter binding
Run conditions: input ligand: FMN 200 uM
Quantity: apparent KD of MS2 coat protein (nM)
Answers are plain numbers, in nM.

Here's what some known entries look like.
>>> quantitative_result("AUAAUGUGAGGAUAUCGAGACUACUGCUGCGGCAGUAGUCUCGAGAAGGCACAUGAGGAUCACCCAUGUGAUCA [E4/2-A3] (Eterna round: R97, puzzle: Exclusion 4)")
89.7
>>> quantitative_result("GUACCAAUUGUAGGAUAUGGAUCCGAUUAGGAUCCAGAAGGACAUGAGGAUCACCCAUGUACAUGAGGAUCACCCAUUAGGUAC [Fiskers ExNg1 - 12] (Eterna round: R96, puzzle: Exclusion NG 1)")
53.2
>>> quantitative_result("AGGUCACAUGAGGAUCACCCAUGUGAGGAUAUUUACUCAAGAGCUUCGGCUCUCAGGUGAAGAAGGCGCAAUGA [EX1 #54] (Eterna round: R97, puzzle: Exclusion 1)")
27.2
>>> quantitative_result("UUAGGCUGAAGAUCAAUUAAUUAACAUGAGGAUCACCCAUGUAAGGAUAUCAGCUCGUUUAGAGCUGAGAAGGUACAUGCAGCC [ExNG3/18-A2] (Eterna round: R96, puzzle: Exclusion NG 3)")
351

Lab note: next sequence to report on.
Inquiry: Fill in the blank: the reported apparent KD of MS2 coat protein of GCAGACGUAGUGAGGAUAUGCUCUACCUCGGUAGAGCAGAAGGCACAUGAGGAUCACCCAUGUGGCUCCUCAUU [Omei Ex4B B22] (Eterna round: R97, puzzle: Brourd's mod of Exclusion 4) is ____.
Reply text: 16.8

* * *

Test system: K4 kissing-loop RNA reporter;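 also: bound reporter read as fluorescence of individual clusters on recovered sequencing chips by microscopy, with normalized cluster intensities fitted with a binding model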
Assay procedure: apparent KD of K4 kissing-loop reporter; higher = weaker reporter binding
Run conditions: Eterna round: R107; input ligand: FMN 200 uM
Categories are assigned from the measured apparent KD of K4 kissing-loop reporter using these intervals: low group = under 0.1 µM, middle group = from 0.1 µM up to 0.5 µM, high group = 0.5 µM and over

>>> category_label("UGUGUUGUUUUGAUGUUUGUUGUAAGGUGGCAGGAUAUCGUAGAGGCGAGAAGGGCUUUUUUGCGUUAUGAGUGAUGUUUGUAGG [exeerzmullin]")
"high group"
>>> category_label("GGUAGCAUGGCGGCCGCCACUCAUCGCCUCCCAUCGUCGGGAAGAAUAAGUGUAGUGAUGUUACAGAGGACCGGGCCAUGCUACC")
"middle group"

Inquiry: Returns: class label. Input: AAACAAGAUGCAGGAUAUACGGACCCAGUGAUGUUGGGUAGAAUUGUCCCGGCAAUCCUUGUGGCAGUAGAAGGGCAAUAAAAGA [Gexeraora]
Reply text: middle group

* * *

System: MS2 coat protein
Assay procedure: apparent KD of MS2 coat protein; designed switch direction (-1 OFF switch, 1 ON switch): -1; higher = weaker reporter binding
Run conditions: input ligand: none
Quantity: apparent KD of MS2 coat protein (nM)
Numbers only, in nM.

>>> quantitative_result("AGUCGUAGACAGGAUAUGCGGCUAAUAAAUAAAGCAGAAGGGUCUACUUGAGGAUCACCCAAGUGGGCGGUUUA [jl-ex6-4.20 ViennaUCT mod] (Eterna round: R97, puzzle: Exclusion 6)")
23.1
>>> quantitative_result("GUUUCGAGACGGAGAUCCGACAUGAGGAUCACCCAUGUCUCCCAAGCUUUUUGCUCGUCUUAUACUCCUCUGUUCUC [Elimod 47 - Jieux - Sensor, turn-off variant 1] (Eterna round: R97, puzzle: Sensor, turn-off variant 1)")
19.4
>>> quantitative_result("CCGUAACAUGAGGAUCACCCAUGUCAGGAUAUUCCAAAAUCGUCGAAAGACGAUAACAGAAGAAGGGACAGUGG [Fiskxlusion 5 - Jieux - Exclusion 1] (Eterna round: R97, puzzle: Exclusion 1)")
111

Inquiry: Fill in the blank: the reported apparent KD of MS2 coat protein of CAUAGUUACUCAGGAUAUACUACAUGAGGAUCACCCAUGUAAUAAAUGAGAAUUUCGAAUGUAUAGUAGAAGGGAGAAAUCUAC [Ostracism 56 - Jieux - Exclusion NG 2] (Eterna round: R96, puzzle: Exclusion NG 2) is ____.
Reply text: 23.8
